As an illustration, consider measured Ki for compounds on Mu-type opioid receptor (Rattus norvegicus, UniProt P33535).
Sequence (P33535 whole entry): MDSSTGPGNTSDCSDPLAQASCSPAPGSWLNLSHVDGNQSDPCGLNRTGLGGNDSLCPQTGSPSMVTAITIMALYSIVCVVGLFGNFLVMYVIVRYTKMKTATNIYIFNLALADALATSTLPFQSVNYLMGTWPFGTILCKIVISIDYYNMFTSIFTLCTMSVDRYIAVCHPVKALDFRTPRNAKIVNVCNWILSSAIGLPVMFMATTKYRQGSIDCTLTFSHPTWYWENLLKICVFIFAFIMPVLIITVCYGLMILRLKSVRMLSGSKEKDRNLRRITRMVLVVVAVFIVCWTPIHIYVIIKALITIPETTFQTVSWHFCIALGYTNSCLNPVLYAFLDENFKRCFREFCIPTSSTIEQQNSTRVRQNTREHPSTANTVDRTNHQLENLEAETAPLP
Please make sure the unit comes right after the number.

O=C(/C=C/c1ccccc1[N+](=O)[O-])N[C@@H]1CC[C@@]2(O)[C@H]3Cc4ccc(O)c5c4[C@@]2(CCN3CC2CC2)[C@H]1O5 :: 0.35 nM

Input line: Let me know recorded Ki for "O=C(/C=C/c1ccccc1)N[C@@H]1CC[C@@]2(O)[C@H]3Cc4ccc(O)c5c4[C@@]2(CCN3CC2CC2)[C@H]1O5" , thanks.
Output line: 0.17 nM

Input line: Give Ki for the following compound: "O=C(/C=C/c1ccccc1)N[C@@H]1CC[C@@]2(OC(=O)c3ccccc3)[C@H]3Cc4ccc(O)c5c4[C@@]2(CCN3CC2CC2)[C@H]1O5"
Output line: 0.42 nM

Input line: Give the reported Ki for this compound. "O=C(/C=C/c1ccccc1)N[C@@H]1CC[C@@]2(OCc3ccccc3)[C@H]3Cc4ccc(O)c5c4[C@@]2(CCN3CC2CC2)[C@H]1O5"
Output line: 0.16 nM

---

// each record: one item and its Ki for Kappa-type opioid receptor (Homo sapiens)
Please answer using the number first and the unit second.

Example results:
CC(=O)O[C@@]12CC[C@@H](NC(=O)/C=C/c3ccccc3)[C@@H]3Oc4c(O)ccc5c4[C@@]31CCN(CC1CC1)[C@@H]2C5 :: 0.59 nM
O=C(/C=C/c1cccc([N+](=O)[O-])c1)N[C@@H]1CC[C@@]2(O)[C@H]3Cc4ccc(O)c5c4[C@@]2(CCN3CC2CC2)[C@H]1O5 :: 0.36 nM

Turning now to a further record.
Input line: Output reported Ki of the compound "O=C(/C=C/c1ccccc1)N[C@@H]1CC[C@@]2(OCc3ccccc3)[C@H]3Cc4ccc(O)c5c4[C@@]2(CCN3CC2CC2)[C@H]1O5" on Kappa-type opioid receptor (Homo sapiens).
Output line: 0.86 nM

---

Read-out record for UniProt:P33535: pKi
# reply with the number alone; pKi is -log10 of concentration in mol/L

The following compounds have reported results that may help.
C=CCO[C@@]12CC[C@@H](NC(=O)/C=C/c3ccccc3)[C@@H]3Oc4c(O)ccc5c4[C@@]31CCN(CC1CC1)[C@@H]2C5 :: 9.60
O=C(/C=C/c1ccccc1Cl)N[C@@H]1CC[C@@]2(O)[C@H]3Cc4ccc(O)c5c4[C@@]2(CCN3CC2CC2)[C@H]1O5 :: 10.10
CC(=O)O[C@@]12CC[C@@H](NC(=O)/C=C/c3ccccc3)[C@@H]3Oc4c(O)ccc5c4[C@@]31CCN(CC1CC1)[C@@H]2C5 :: 9.68
O=C(/C=C/c1ccccc1)N[C@@H]1CC[C@@]2(OC(=O)Cc3ccccc3)[C@H]3Cc4ccc(O)c5c4[C@@]2(CCN3CC2CC2)[C@H]1O5 :: 9.55

Please look at the following compound next.
Input line: Find the measured pKi of "O=C(/C=C/c1cccc([N+](=O)[O-])c1)N[C@@H]1CC[C@@]2(O)[C@H]3Cc4ccc(O)c5c4[C@@]2(CCN3CC2CC2)[C@H]1O5" and report it.
Output line: 9.96

---

biological target: Kappa-type opioid receptor (Homo sapiens); assay: Agonist activity at human kappa opioid receptor expressed in CHO cell membrane assessed as stimulation of [35S]GTPgammaS binding
Readings of EC50 for the listed compounds
Number in nM, nothing else.

C=CCO[C@@]12CC[C@@H](NC(=O)/C=C/c3ccccc3)[C@@H]3Oc4c(O)ccc5c4[C@@]31CCN(CC1CC1)[C@@H]2C5 :: 0.079

Input line: Fill in: EC50 on Kappa-type opioid receptor (Homo sapiens), entry "O=C(/C=C/c1ccccc1)N[C@@H]1CC[C@@]2(OCc3ccccc3)[C@H]3Cc4ccc(O)c5c4[C@@]2(CCN3CC2CC2)[C@H]1O5"
Output line: 0.78

Input line: Specify the recorded EC50 for "O=C(/C=C/c1cccc([N+](=O)[O-])c1)N[C@@H]1CC[C@@]2(O)[C@H]3Cc4ccc(O)c5c4[C@@]2(CCN3CC2CC2)[C@H]1O5" , system: Kappa-type opioid receptor (Homo sapiens).
Output line: 0.12

Input line: Give EC50; test system Kappa-type opioid receptor (Homo sapiens); compound "CC(=O)O[C@@]12CC[C@@H](NC(=O)/C=C/c3ccccc3)[C@@H]3Oc4c(O)ccc5c4[C@@]31CCN(CC1CC1)[C@@H]2C5"
Output line: 2.4

Input line: Identify measured EC50 obtained with Kappa-type opioid receptor (Homo sapiens) for "O=C(/C=C/c1ccccc1)N[C@@H]1CC[C@@]2(OC(=O)Cc3ccccc3)[C@H]3Cc4ccc(O)c5c4[C@@]2(CCN3CC2CC2)[C@H]1O5" .
Output line: 0.49

Input line: Find EC50 for "O=C(/C=C/c1ccccc1)N[C@@H]1CC[C@@]2(O)[C@H]3Cc4ccc(O)c5c4[C@@]2(CCN3CC2CC2)[C@H]1O5" on Kappa-type opioid receptor (Homo sapiens) and write it down.
Output line: 0.12

---

biological target: Kappa-type opioid receptor (Homo sapiens, UniProt P41145); assay: Agonist activity at human kappa opioid receptor expressed in CHO cell membrane assessed as stimulation of [35S]GTPgammaS binding
Sequence (P41145 whole entry): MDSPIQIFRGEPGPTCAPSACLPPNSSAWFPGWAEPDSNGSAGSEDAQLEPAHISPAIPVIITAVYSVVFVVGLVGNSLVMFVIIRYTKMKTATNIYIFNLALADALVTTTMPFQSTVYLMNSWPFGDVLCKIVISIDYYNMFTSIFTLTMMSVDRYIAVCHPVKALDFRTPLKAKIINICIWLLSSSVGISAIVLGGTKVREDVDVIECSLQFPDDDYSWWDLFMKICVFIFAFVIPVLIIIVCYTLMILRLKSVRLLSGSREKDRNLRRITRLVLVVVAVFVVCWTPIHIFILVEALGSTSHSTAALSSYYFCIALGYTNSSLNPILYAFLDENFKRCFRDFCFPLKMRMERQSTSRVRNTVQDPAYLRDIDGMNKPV
metric: pEC50
Conceptually, pEC50 converts a concentration in mol/L into minus its log10.

Input line: Using the record for "O=C(/C=C/c1ccccc1Cl)N[C@@H]1CC[C@@]2(O)[C@H]3Cc4ccc(O)c5c4[C@@]2(CCN3CC2CC2)[C@H]1O5" , state its measured pEC50.
Output line: 9.40

Input line: Write down pEC50 measured for item "O=C(/C=C/c1ccccc1)N[C@@H]1CC[C@@]2(OC(=O)c3ccccc3)[C@H]3Cc4ccc(O)c5c4[C@@]2(CCN3CC2CC2)[C@H]1O5"
Output line: 8.01

Input line: Give the reported value of pEC50 for this record: "O=C(/C=C/c1ccccc1[N+](=O)[O-])N[C@@H]1CC[C@@]2(O)[C@H]3Cc4ccc(O)c5c4[C@@]2(CCN3CC2CC2)[C@H]1O5"
Output line: 8.72

---

target: Kappa-type opioid receptor (Homo sapiens, UniProt P41145); assay: Displacement of [3H]diprenorphine from human kappa opioid receptor expressed in CHO cell membrane by liquid scintillation and luminescence counter
Readings of pKi for the listed compounds
pKi (log units): -log10 of the concentration in mol/L.

Use the examples below as a reference point.
O=C(/C=C/c1ccccc1)N[C@@H]1CC[C@@]2(OC(=O)Cc3ccccc3)[C@H]3Cc4ccc(O)c5c4[C@@]2(CCN3CC2CC2)[C@H]1O5 :: 9.59
O=C(/C=C/c1ccccc1Cl)N[C@@H]1CC[C@@]2(O)[C@H]3Cc4ccc(O)c5c4[C@@]2(CCN3CC2CC2)[C@H]1O5 :: 9.57
O=C(/C=C/c1ccccc1)N[C@@H]1CC[C@@]2(OC(=O)c3ccccc3)[C@H]3Cc4ccc(O)c5c4[C@@]2(CCN3CC2CC2)[C@H]1O5 :: 8.96
C=CCO[C@@]12CC[C@@H](NC(=O)/C=C/c3ccccc3)[C@@H]3Oc4c(O)ccc5c4[C@@]31CCN(CC1CC1)[C@@H]2C5 :: 9.92
O=C(/C=C/c1ccccc1[N+](=O)[O-])N[C@@H]1CC[C@@]2(O)[C@H]3Cc4ccc(O)c5c4[C@@]2(CCN3CC2CC2)[C@H]1O5 :: 9.52

Note: attention shifts to another entry.
Input line: Please look at "O=C(/C=C/c1ccccc1)N[C@@H]1CC[C@@]2(O)[C@H]3Cc4ccc(O)c5c4[C@@]2(CCN3CC2CC2)[C@H]1O5" and tell me its recorded pKi on Kappa-type opioid receptor (Homo sapiens, UniProt P41145).
Output line: 10.37

---

target: Kappa-type opioid receptor (Homo sapiens, UniProt P41145); experiment: Agonist activity at human kappa opioid receptor expressed in CHO cell membrane assessed as stimulation of [35S]GTPgammaS binding relative to U69593; type: functional, cell membranes
Listing of recorded Activity by entry.
Return type: number; implicit unit %.

Please review the following examples before continuing.
O=C(/C=C/c1cccc([N+](=O)[O-])c1)N[C@@H]1CC[C@@]2(O)[C@H]3Cc4ccc(O)c5c4[C@@]2(CCN3CC2CC2)[C@H]1O5 :: 100
O=C(/C=C/c1ccccc1[N+](=O)[O-])N[C@@H]1CC[C@@]2(O)[C@H]3Cc4ccc(O)c5c4[C@@]2(CCN3CC2CC2)[C@H]1O5 :: 81
CC(=O)O[C@@]12CC[C@@H](NC(=O)/C=C/c3ccccc3)[C@@H]3Oc4c(O)ccc5c4[C@@]31CCN(CC1CC1)[C@@H]2C5 :: 97

Pending molecule:
Input line: Fill in Activity for record "O=C(/C=C/c1ccccc1)N[C@@H]1CC[C@@]2(O)[C@H]3Cc4ccc(O)c5c4[C@@]2(CCN3CC2CC2)[C@H]1O5"
Output line: 100

---

biological target: UniProtKB P33535; test: Agonist activity at rat mu opioid receptor expressed in rat C6 cell membrane assessed as stimulation of [35S]GTPgammaS binding relative to DAMGO; assay type: functional, cell membranes
Reported Activity values for the following molecules.

O=C(/C=C/c1ccccc1Cl)N[C@@H]1CC[C@@]2(O)[C@H]3Cc4ccc(O)c5c4[C@@]2(CCN3CC2CC2)[C@H]1O5 :: 17%
O=C(/C=C/c1ccccc1)N[C@@H]1CC[C@@]2(O)[C@H]3Cc4ccc(O)c5c4[C@@]2(CCN3CC2CC2)[C@H]1O5 :: 21%
O=C(/C=C/c1cccc([N+](=O)[O-])c1)N[C@@H]1CC[C@@]2(O)[C@H]3Cc4ccc(O)c5c4[C@@]2(CCN3CC2CC2)[C@H]1O5 :: 20%

Input line: Report its Activity with UniProtKB P33535 as the test system: "O=C(/C=C/c1ccccc1)N[C@@H]1CC[C@@]2(OC(=O)Cc3ccccc3)[C@H]3Cc4ccc(O)c5c4[C@@]2(CCN3CC2CC2)[C@H]1O5"
Output line: 41%

Input line: Output reported Activity of the molecule "CC(=O)O[C@@]12CC[C@@H](NC(=O)/C=C/c3ccccc3)[C@@H]3Oc4c(O)ccc5c4[C@@]31CCN(CC1CC1)[C@@H]2C5" on UniProtKB P33535.
Output line: 19%
